// provenance: patent US20230144211A1

Test system: SK-BR-3 cells
PROTOCOL NOTES: In vitro cell viability assay (CellTiter-Glo, 6 days)
Assay type: cell-based, human
PARTICULARS: Homo sapiens, SK-BR-3, free antifolate drugs, Table 1a
MEASUREMENT LABEL: IC50 (nM)
Return type: number; implicit unit nM.

Here is how some compounds turned out for IC50.
| COMPOUND | U | IC50 |
| --- | --- | --- |
| Cc1c(CNc2ccc(C(=O)N[C@@H](CCCNC(=O)c3ccccc3C(=O)O)C(=O)O)cc2)ccc2nc(N)nc(N)c12 [Comparative compound 1, reference compound] | nM | 0.92 |
| Nc1nc(N)c2nc(CNc3ccc(C(=O)N[C@@H](CCCNC(=O)c4ccccc4C(=O)O)C(=O)O)cc3)cnc2n1 [Talotrexin, reference compound] | nM | 1.83 |
| Nc1nc(N)c2nc(CNc3ccc(C(=O)N[C@@H](CCCNC(=O)c4ccc(O)cc4)C(=O)O)cc3)cnc2n1 | nM | 1.6 |
| Nc1ccc(-c2cn(CCC[C@H](NC(=O)c3ccc(NCc4cnc5nc(N)nc(N)c5n4)cc3)C(=O)O)nn2)c(C(=O)O)c1 | nM | 2.2 |

Look up IC50: `Nc1ccc(C(=O)NCCC[C@H](NC(=O)c2ccc(CCc3cnc4nc(N)nc(N)c4n3)cc2)C(=O)O)cc1` 6.5

Same read-out for `CN(Cc1cnc2nc(N)nc(N)c2n1)c1ccc(C(=O)N[C@@H](CCCNC(=O)c2ccc(N)cc2C(=O)O)C(=O)O)cc1` ? 2.1

Same read-out for `Nc1ccc(C(=O)NCCC[C@H](NC(=O)c2ccc(NCc3cnc4nc(N)nc(N)c4n3)cc2)C(=O)O)c(S(=O)(=O)O)c1` ? 2.4

Same read-out for `Nc1ccc(C(=O)NCCC[C@H](NC(=O)c2ccc(CCc3cnc4nc(N)nc(N)c4n3)cc2)C(=O)O)c(C(=O)O)c1` ? 1

Same read-out for `CN(Cc1cnc2nc(N)nc(N)c2n1)c1ccc(C(=O)N[C@@H](CCCNC(=O)c2cc(N)ccc2C(=O)O)C(=O)O)cc1` ? 25

Same read-out for `Nc1ccc(C(=O)NCCC[C@H](NC(=O)c2ccc(NCc3cnc4nc(N)nc(N)c4n3)cc2)C(=O)O)cc1` ? 3.1

* * *

Tested on: MV4-11 cells
PROTOCOL NOTES: In vitro cell viability assay (CellTiter-Glo, 6 days)
Assay type: cell-based
PARTICULARS: Homo sapiens, free antifolate drugs, Table 1d
MEASUREMENT LABEL: IC50
Please report the result as a number followed by the unit.

Look up IC50: Nc1ccc(C(=O)NCCC[C@H](NC(=O)c2ccc(CCc3ccc4nc(N)nc(N)c4c3Cl)cc2)C(=O)O)c(-c2nnn[nH]2)c1 [XT123] 0.62 nM

* * *

Tested on: AU-565 cells
PROTOCOL NOTES: In vitro cell viability assay (CellTiter-Glo, 6 days)
Assay type: cell-based, human
PARTICULARS: free antifolate drugs, Table 1c
MEASUREMENT LABEL: IC50 (nM)
Return type: number; implicit unit nM.

Look up IC50: CN(Cc1cnc2nc(N)nc(N)c2n1)c1ccc(C(=O)N[C@@H](CCCNC(=O)c2ccc(N)cc2-c2nn[nH]n2)C(=O)O)s1 [XC9] 1.95

* * *

Test system: RAJI cells
PROTOCOL NOTES: In vitro cell viability assay (CellTiter-Glo, 6 days)
Type: cell-based
PARTICULARS: Homo sapiens, free antifolate drugs, Table 1d
Text: Human tumor cell lines SK-BR-3, SW-620, A-549, BT-474, Jurkat Clone E6-1, AU-565, and SK-OV-3 were obtained from American Type Culture Collection (Rockville, Md., USA). FaDu, BxPC-3, HeLa, MV4-11, and RAJI cell lines were obtained from Deutsche Sammlung von Mikroorganismen und Zellkulturen (Leipzig, Germany). Jurkat NucLight Red cells were obtained from Essen BioScience Inc. (Ann Arbor, Mich., USA). […]
MEASUREMENT LABEL: IC50 (nM)
Return type: number; implicit unit nM.

Look up IC50: Nc1ccc(C(=O)NCCC[C@H](NC(=O)c2ccc(CCc3ccc4nc(N)nc(N)c4c3Cl)cc2)C(=O)O)c(-c2nnn[nH]2)c1 [XT123] 0.6
